Target: complement C5 in human serum/blood (Homo sapiens, UniProt P01031)
Sequence (P01031 whole entry): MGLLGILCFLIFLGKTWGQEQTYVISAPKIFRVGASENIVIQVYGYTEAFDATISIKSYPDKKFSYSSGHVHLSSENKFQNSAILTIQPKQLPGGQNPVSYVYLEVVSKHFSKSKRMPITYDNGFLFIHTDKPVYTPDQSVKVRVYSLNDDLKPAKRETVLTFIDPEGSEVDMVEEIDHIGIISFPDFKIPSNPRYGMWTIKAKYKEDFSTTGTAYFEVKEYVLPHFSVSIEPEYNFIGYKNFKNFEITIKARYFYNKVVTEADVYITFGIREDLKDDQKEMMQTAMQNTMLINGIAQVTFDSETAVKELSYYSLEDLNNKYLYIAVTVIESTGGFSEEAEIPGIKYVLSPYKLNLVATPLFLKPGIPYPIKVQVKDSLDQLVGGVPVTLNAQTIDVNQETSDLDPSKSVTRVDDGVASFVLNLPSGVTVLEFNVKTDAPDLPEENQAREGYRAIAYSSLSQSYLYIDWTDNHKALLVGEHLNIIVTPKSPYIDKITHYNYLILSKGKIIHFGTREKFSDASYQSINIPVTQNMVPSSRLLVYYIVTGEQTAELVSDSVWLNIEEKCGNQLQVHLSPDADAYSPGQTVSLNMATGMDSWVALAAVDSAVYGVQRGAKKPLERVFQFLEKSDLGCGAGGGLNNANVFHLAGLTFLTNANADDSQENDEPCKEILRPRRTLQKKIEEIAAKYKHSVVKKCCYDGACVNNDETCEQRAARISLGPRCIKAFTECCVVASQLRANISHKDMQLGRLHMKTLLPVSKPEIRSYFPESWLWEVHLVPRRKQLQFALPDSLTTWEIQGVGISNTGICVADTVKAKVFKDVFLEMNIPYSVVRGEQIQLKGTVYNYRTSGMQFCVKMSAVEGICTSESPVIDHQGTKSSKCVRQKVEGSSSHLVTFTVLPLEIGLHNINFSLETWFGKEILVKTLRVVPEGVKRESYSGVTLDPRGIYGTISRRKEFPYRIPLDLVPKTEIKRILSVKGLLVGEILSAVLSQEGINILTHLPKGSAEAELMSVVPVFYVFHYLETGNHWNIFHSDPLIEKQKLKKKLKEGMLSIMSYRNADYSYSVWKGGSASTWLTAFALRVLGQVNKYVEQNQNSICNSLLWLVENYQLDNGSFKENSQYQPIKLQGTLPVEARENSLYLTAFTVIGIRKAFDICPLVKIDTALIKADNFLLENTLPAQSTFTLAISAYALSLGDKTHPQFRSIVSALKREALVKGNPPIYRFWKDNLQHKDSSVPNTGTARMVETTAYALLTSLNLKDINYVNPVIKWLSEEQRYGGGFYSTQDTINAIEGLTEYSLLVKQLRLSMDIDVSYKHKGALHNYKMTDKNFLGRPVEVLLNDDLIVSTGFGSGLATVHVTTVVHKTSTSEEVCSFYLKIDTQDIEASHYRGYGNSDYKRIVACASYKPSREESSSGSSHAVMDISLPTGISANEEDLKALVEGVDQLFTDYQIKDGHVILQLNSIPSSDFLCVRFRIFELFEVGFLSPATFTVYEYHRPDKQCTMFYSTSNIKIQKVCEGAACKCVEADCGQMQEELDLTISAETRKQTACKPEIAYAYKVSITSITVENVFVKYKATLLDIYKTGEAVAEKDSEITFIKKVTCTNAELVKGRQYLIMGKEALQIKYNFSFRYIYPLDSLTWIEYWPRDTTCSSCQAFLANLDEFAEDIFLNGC
Assay: inhibition; hemolysis, 0.2% human serum, 25 C
Settings: protein: extract
pIC50: −log10 of the molar value.
measured quantity: pIC50

Prompt: // pIC50 lookup, key: ARC913 (mixed, dRmY: A,G deoxy; C,U 2'-OMe) RNA: GGGAGAGGAGAGAACGUUCUACCUUGGUUUGGCACAGGCAUACAUACGCAGGGGUCGAUCGAUCGAUCAUCGAUG
Completion: ~7.52

Values were extracted from patent US20090269356.
